Test: melting temperature; fluorescence melt of hairpins on a sequencing array, two-state fit, raised by 9.35 °C to match UV melts
Details: sodium 0.088 M
Please respond with Y when measured Tm is strictly beneath 50 °C, and with N in all other cases.

Before answering, review these 10 worked examples.
INSERT INTO measurements (residue_codes, assigned_class) VALUES
  ('GATCGGACGCCGATC ((((((...))))))', 'N'),
  ('GGGAAAGGAAACTTTCTC (.(((((....))))).)', 'Y'),
  ('GATCATGGGAATGATC ((((((....))))))', 'N'),
  ('GATCCGTTACGGATC ((((((...))))))', 'N'),
  ('GAAGCCGAAAGGCATTC ((((((....))).)))', 'Y'),
  ('GATCGTGGTTACGATC ((((((....))))))', 'N'),
  ('GCTTTCCCGAAAGGGAGC (((..(((....))))))', 'Y'),
  ('GATCTAGTCTTAGATC ((((((....))))))', 'Y'),
  ('GATCATTAAAATGATC ((((((....))))))', 'Y'),
  ('GGGTGTTCGAAAGAACCC (((..(((....))))))', 'N');

*Q* I wonder whether GCAATCGGAAACAATTGC (((((.(....).))))) has Tm below 50 °C. Can you tell?
*A* Y

*Q* I wonder whether GCTGAGGGAAACCTTAGC (((.(((....))).))) has Tm below 50 °C. Can you tell?
*A* Y

*Q* I wonder whether GCGATAGAAATATCGC ((((((....)))))) has Tm below 50 °C. Can you tell?
*A* N

*Q* I wonder whether GGATCTCGAAAGAGTTCC (((.(((....))).))) has Tm below 50 °C. Can you tell?
*A* Y

*Q* I wonder whether GGGCTTGGAAACAGGTCC ((.(.((....)).).)) has Tm below 50 °C. Can you tell?
*A* Y

###

Assay: melting temperature; fluorescence melt of hairpins on a sequencing array, two-state fit, raised by 9.35 °C to match UV melts
Details: sodium 0.088 M
Experimental Endpoint: Tm (°C)
One number for each entry, in °C.

INSERT INTO measurements (residue_codes, experimental_endpoint, units_of_measure, measurement) VALUES
  ('GCACCGGCGAAAGCCTGC (((..(((....))))))', 'Tm', '°C', 39.1),
  ('GTTGTCGAAAGACAAC ((((((....))))))', 'Tm', '°C', 67.5),
  ('GAATTCCCGAAAGGGTTC (((..(((....))))))', 'Tm', '°C', 28),
  ('GATCATTCTAATGATC ((((((....))))))', 'Tm', '°C', 49.4),
  ('GCATCGCGAAAGCCCTGC (((..((....))..)))', 'Tm', '°C', 33);

For each of the sequences below, state Tm.
1. GATCGAGGTATCGATC ((((((....))))))
2. GAGGTTGCGAAAGCACTC (((..(((....))))))
3. CTTTCGAAAGAAAG (((((....)))))
4. GGCTGAGGAAACCCAGCC (((((.(....).)))))
5. GCTTAGCGAAAGCGAGGC ((.(.((....)).).))
6. GATCTTCTTTAAGATC ((((((....))))))
7. GAAGCCGAAAGGCAATTC ((((((....)))..)))
8. GATCACTCTCGTGATC ((((((....))))))

*A*
58.7
33.9
47.3
55
51.8
43.3
39.6
55.7

For each of the sequences below, state Tm.
1. GGAGGCGAAAGCCGCTCC ((((((....)))..)))
2. GCTCGTCGAAAGACAGC (((.(((....))))))
3. GTCAGAGGAAACCCTGAC (((((.(....).)))))
4. GTATGCGAAAGCATCTAC ((((((....)))..)))
5. GCGTTACAACGC ((((....))))
6. GTATGCGGAAACGCACAC ((.((((....)))).))

*A*
49.2
51.4
43.8
40
58.6
40

###

Exercise: for every item that follows, state its recorded Tm.
Assay: melting temperature; fluorescence melt of hairpins on a sequencing array, two-state fit, raised by 9.35 °C to match UV melts
Settings: sodium 0.088 M
One number for each entry, in °C.

These recorded examples may help you get a feel for the data.
INSERT INTO assay_data (residue_codes, units_of_measure, measurement) VALUES
  ('GTATCGGGAAACCGATAC (((((((....)))))))', '°C', 62.2),
  ('GGCTAACGAAAGTTGGCC (((.(((....))).)))', '°C', 60.1),
  ('GTCTTGGGAAACCAAGGC (.(((((....))))).)', '°C', 51);

For each of the sequences below, state Tm.
1. GCAGACGGAAACACCTGC ((((..(....)..))))
2. GCGGGGGGAAACCTCCGC ((((.((....)).))))
3. GTACAGGGAAACTTGTAC (((((.(....).)))))
4. GCTTTTGGAAACAAAAAC (.(((((....))))).)
5. GAGTACGAAAGTACCCTC ((((((....)))..)))
6. GATCGAGTTGTCGATC ((((((....))))))
7. GGATCCGGAAACGGATTC (.(((((....))))).)

*A*
1. 28.6
2. 66.7
3. 39.8
4. 26.6
5. 38.6
6. 52.8
7. 52

For each of the sequences below, state Tm.
1. GGAGGCGCGAAAGCGTCC (((..(((....))))))
2. GGCCTCGAAAGAGTGGCC ((((((....)))..)))

*A*
[47, 54.4]

###

Assay: melting temperature; fluorescence melt of hairpins on a sequencing array, two-state fit, raised by 9.35 °C to match UV melts
Settings: sodium 0.088 M
Please respond with met when measured Tm is strictly beneath 50 °C, and with not met in all other cases.

INSERT INTO measurements (residue_codes, assigned_class) VALUES
  ('GAACACGAAAGTGGTTTC ((((((....)))..)))', 'met'),
  ('GCTTATGGAAACACAAGC ((((.((....)).))))', 'met'),
  ('GCCTGGCGAAAGCGGGGC (((..((....))..)))', 'not met');

*Q* I wonder whether GATGGCGAAAGCCGGATC ((((((....)))..))) has Tm below 50 °C. Can you tell?
*A* met

*Q* I wonder whether GGATAGGGAAACCTGTCC (((.(((....))).))) has Tm below 50 °C. Can you tell?
*A* met

*Q* I wonder whether GATCGCCGGCGCGATC ((((((....)))))) has Tm below 50 °C. Can you tell?
*A* not met

*Q* I wonder whether GGAGGGCCGAAAGGCTCC (((..(((....)))))) has Tm below 50 °C. Can you tell?
*A* met

*Q* I wonder whether CGACCGGAAACGGCATCG ((((((....)))..))) has Tm below 50 °C. Can you tell?
*A* met

*Q* I wonder whether GTGGGCGAAAGCCCGCAC ((((((....)))..))) has Tm below 50 °C. Can you tell?
*A* not met

###

Assay: folding enthalpy; higher = less favourable; fluorescence melt of hairpins on a sequencing array, two-state fit
Conditions: sodium 0.088 M
Experimental Endpoint: folding enthalpy (kcal/mol)
Give bare numbers, in kcal/mol.

For each of the sequences below, state folding enthalpy.
1. GTTACTGGAAACAGTAAC (((((((....)))))))
2. GGATCCCGAAAGGGCTCC (((.(((....))).)))
3. GCCTGGCGAAAGCCGAGC ((..(((....)))..))
4. CGCCGTCGGAAACGAGCG (((..(((....))))))

*A*
1. -60.8
2. -26.5
3. -13.5
4. -28.4

For each of the sequences below, state folding enthalpy.
1. GTGCCGCGAAAGCGTCAC (((.(((....))).)))
2. GAACAGCGAAAGCTATTC (((.(((....))).)))

*A*
[-29.1, -15.6]

###

Assay: melting temperature; fluorescence melt of hairpins on a sequencing array, two-state fit, raised by 9.35 °C to match UV melts
Details: sodium 0.088 M
Experimental Endpoint: Tm

INSERT INTO measurements (residue_codes, measurement) VALUES
  ('GACGGTGGAAACATCGTC ((((.((....)).))))', '53.7 °C'),
  ('GATCACTCAGGTGATC ((((((....))))))', '57.4 °C'),
  ('GCTGAGCCGAAAGGCAGC (((..(((....))))))', '51.7 °C'),
  ('CGCGGACGCCTCCGCG ((((((....))))))', '68.8 °C'),
  ('GACTAACGAAAGTTGGTC (((.(((....))).)))', '51.3 °C');

Let us examine a further case.
*Q* State the recorded Tm for this entry: GGAATTGAAAAATTCC ((((((....))))))
*A* 48 °C
